- TARGET_ENTITY: gelatinase B (MMP-9) (Homo sapiens, UniProt P14780)
- Construct: purchased Boehringer Manneheim 1758896; host or cells: human blood (natural source)
- Sequence (P14780 107-707 limits assumed): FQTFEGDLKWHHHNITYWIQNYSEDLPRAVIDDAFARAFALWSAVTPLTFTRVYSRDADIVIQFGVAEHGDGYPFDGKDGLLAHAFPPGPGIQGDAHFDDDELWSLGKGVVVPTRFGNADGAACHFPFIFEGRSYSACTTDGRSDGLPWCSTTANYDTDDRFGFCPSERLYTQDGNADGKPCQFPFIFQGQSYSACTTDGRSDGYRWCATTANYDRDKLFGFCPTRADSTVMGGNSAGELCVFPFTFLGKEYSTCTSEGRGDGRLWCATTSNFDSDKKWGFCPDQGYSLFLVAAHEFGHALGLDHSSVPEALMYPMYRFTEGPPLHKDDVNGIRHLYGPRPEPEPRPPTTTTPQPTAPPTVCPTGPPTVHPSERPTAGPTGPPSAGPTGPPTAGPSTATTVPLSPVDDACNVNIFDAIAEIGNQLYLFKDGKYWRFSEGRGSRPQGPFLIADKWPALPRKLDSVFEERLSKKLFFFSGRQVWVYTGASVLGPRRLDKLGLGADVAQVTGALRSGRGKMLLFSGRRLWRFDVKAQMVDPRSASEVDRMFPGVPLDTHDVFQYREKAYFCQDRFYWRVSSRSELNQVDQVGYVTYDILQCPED
- ASSAY_REMARKS: In vitro inhibition on gelatinase B (MMP-9), fluorescent synthetic peptide substrate
- Format: biochemical
- STUDY_CONDITIONS: Table 1
PROPERTY_LABEL: IC50 (nM)

molecule="CC(C)[C@@H](NS(=O)(=O)c1ccc2nc(SCCCc3ccccc3)sc2c1)C(=O)NO [Number 76]" quantity_unit=nM observed_value=34
molecule="CC(C)[C@@H](NS(=O)(=O)c1ccc2nc(SCc3ccc(Cl)cc3)sc2c1)C(=O)NO [Number 72]" quantity_unit=nM observed_value=0.6

P = CCCCCCCCCCCCSc1nc2ccc(S(=O)(=O)N(Cc3ccccc3)[C@@H](C(=O)O)C(C)C)cc2s1 [Number 61]
Q = CC(C)[C@@H](NS(=O)(=O)c1ccc2nc(Sc3ccc(F)cc3)sc2c1)C(=O)NO [Number 84]
**Q:** Select the item with the higher value of IC50 from the options P and Q listed. Provide the label of your selected option as the answer.
**A:** P

====

- TARGET_ENTITY: gelatinase A (MMP-2) (Homo sapiens, UniProt P08253)
- Construct: purchased Boehringer Manneheim 1782916; host or cells: human fibrosarcoma cells (natural source)
- Sequence (P08253 110-660): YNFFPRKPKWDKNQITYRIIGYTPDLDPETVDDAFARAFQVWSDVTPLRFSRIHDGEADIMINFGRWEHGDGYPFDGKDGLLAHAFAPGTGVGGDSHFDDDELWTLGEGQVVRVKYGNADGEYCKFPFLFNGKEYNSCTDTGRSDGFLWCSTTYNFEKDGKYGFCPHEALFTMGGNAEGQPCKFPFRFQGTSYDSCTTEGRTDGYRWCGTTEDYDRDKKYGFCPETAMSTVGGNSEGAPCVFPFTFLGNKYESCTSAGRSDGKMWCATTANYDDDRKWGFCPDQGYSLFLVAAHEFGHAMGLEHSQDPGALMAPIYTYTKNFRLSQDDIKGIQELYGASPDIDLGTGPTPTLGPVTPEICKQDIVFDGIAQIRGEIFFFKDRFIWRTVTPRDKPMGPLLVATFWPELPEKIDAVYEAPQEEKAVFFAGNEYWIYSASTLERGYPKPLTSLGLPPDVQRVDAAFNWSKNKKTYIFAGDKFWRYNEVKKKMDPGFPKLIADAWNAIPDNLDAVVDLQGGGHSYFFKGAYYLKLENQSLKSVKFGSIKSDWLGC
- ASSAY_REMARKS: In vitro inhibition on gelatinase A (MMP-2), fluorescent synthetic peptide substrate
- Assay type: biochemical
- STUDY_CONDITIONS: Table 1
PROPERTY_LABEL: IC50 (nM)

Some entries whose results are on file:
compound="CCCCCCCCSc1nc2ccc(S(=O)(=O)N(Cc3ccccc3)[C@@H](C(=O)O)C(C)C)cc2s1 [Number 57]" target_entity="gelatinase A (MMP-2) (Homo sapiens, UniProt P08253)" observed_value=780
compound="CC(C)[C@@H](NS(=O)(=O)c1ccc2nc(Sc3ccc(Br)cc3)sc2c1)C(=O)NO [Number 82]" target_entity="gelatinase A (MMP-2) (Homo sapiens, UniProt P08253)" observed_value=5.3
compound="CC(C)[C@@H](NS(=O)(=O)c1ccc2nc(SCCCc3ccccc3)sc2c1)C(=O)NO [Number 76]" target_entity="gelatinase A (MMP-2) (Homo sapiens, UniProt P08253)" observed_value=10.7
compound="CC(C)[C@@H](NS(=O)(=O)c1ccc2nc(Sc3ccccc3)sc2c1)C(=O)O [Number 77]" target_entity="gelatinase A (MMP-2) (Homo sapiens, UniProt P08253)" observed_value=410
compound="Cc1ccc(Sc2nc3ccc(S(=O)(=O)N[C@@H](C(=O)O)C(C)C)cc3s2)cc1 [Number 79]" target_entity="gelatinase A (MMP-2) (Homo sapiens, UniProt P08253)" observed_value=250

a = CC(C)[C@@H](NS(=O)(=O)c1ccc2nc(Sc3ccc(Br)cc3)sc2c1)C(=O)O [Number 81]
b = CC(C)[C@@H](NS(=O)(=O)c1ccc2nc(SCc3ccccc3)sc2c1)C(=O)NO [Number 70]
c = CC(C)[C@@H](NS(=O)(=O)c1ccc2nc(SCCCc3ccccc3)sc2c1)C(=O)O [Number 75]
**Q:** List these items ordered by IC50, big to small. Order the labels as requested and list them.
**A:** c, a, b
(c: 1120 nM, a: 320 nM, b: 0.7 nM)
